assay overview: Mutagenicity in Salmonella typhimurium TA98 by AMES test
Format: toxicity
experimental conditions: salmonella enterica subsp. enterica serovar typhimurium
readout kind: Activity

Task item: // Input: CCCC1(CCC)c2cc(N)ccc2-c2ccc(N)cc21 . Output its Activity only.
Reply: Non-Toxic

Task item: Supply recorded Activity for CCCCCCCCCC(c1ccccc1)n1c2cc(N)ccc2c2ccc(N)cc21 (stereo not drawn) here.
Reply: Non-Toxic

Task item: Quote Activity reported for CCCCOc1ccc(Cn2c3cc(N)ccc3c3ccc(N)cc32)cc1 please.
Reply: Non-Toxic

###

Test system: Hepatitis C virus
assay overview: Antiviral activity against Hepatitis C virus subtype 1b harboring NS5A Y93H mutant infected in Huh 7.5.1 cells assessed as reduction in viral replication incubated for 3 days by NK5.1 luciferase reporter gene assay
Assay type: functional, organism-based, Hepacivirus hominis
experimental conditions: Huh-7.5.1, 72 h
readout kind: EC50 (nM)
One number for each entry, in nM.

Task item: Supply recorded EC50 for CCCCC1(CCCC)c2cc(NC(=O)[C@@H]3C[C@@H](O)CN3C(=O)[C@H](NC(=O)OC)c3ccccc3)ccc2-c2ccc(NC(=O)[C@@H]3C[C@@H](O)CN3C(=O)[C@H](NC(=O)OC)c3ccccc3)cc21 here.
Reply: 0.88

###

assay overview: Mutagenicity in Salmonella typhimurium TA98 in presence of liver S9 fraction by AMES test
Format: toxicity, subcellular
experimental conditions: salmonella enterica subsp. enterica serovar typhimurium
readout kind: Activity

Task item: Please report Activity for the following compound: Nc1ccc2c(c1)C(=Cc1ccc(C(F)(F)F)cc1)c1cc(N)ccc1-2
Reply: Toxic

Task item: Return value of Activity for input CCCCOc1ccc(Cn2c3cc(N)ccc3c3ccc(N)cc32)cc1 , no commentary.
Reply: Toxic

Task item: Consider the compound CCCCCCOc1ccc(Cn2c3cc(N)ccc3c3ccc(N)cc32)cc1 . State its measured Activity.
Reply: Toxic

###

assay overview: Mutagenicity in Salmonella typhimurium TA98 by AMES test
Assay type: toxicity
experimental conditions: salmonella enterica subsp. enterica serovar typhimurium
readout kind: Activity

Task item: State, in one line, measured Activity of CCCCCCCCCCCCn1c2cc(N)ccc2c2ccc(N)cc21
Reply: Non-Toxic

Task item: Answer with reported Activity of Nc1ccc2c(c1)C(c1ccc(C(F)(F)F)cc1)c1cc(N)ccc1-2
Reply: Non-Toxic

Task item: Complete the entry with Activity for CC(C)=CC1c2cc(N)ccc2-c2ccc(N)cc21
Reply: Toxic

Task item: Given CCCCn1c2cc(N)ccc2c2ccc(N)cc21 , respond with its Activity.
Reply: Toxic
